Listing of recorded T/C by entry.
# System: L1210 leukemia ip in BDF1 mice, survival T/C
# Assay explanation: NCI In Vivo Anticancer Drug Screen. Data for tumor model L1210 Leukemia (intraperitoneal) in B6D2F1 (BDF1) mice
# Measurement conditions: endpoint: mean survival time; dose: 10.0 mg/kg/injection; schedule: Q01DX001 (ip); vehicle: saline; higher = longer survival
Inconclusive results and toxic doses are left out.

Compound	T/C
Oc1ccc(Nc2ccnc3cc(Cl)ccc23)cc1CN(CCCl)CCCl	109 % of control
CC(N)CCc1ccccc1 (configuration not stated)	105 % of control
NCCCCC(N)C(=O)Nc1ccc(Nc2ccc(NC(=O)C(N)CCCCN)cc2)cc1 (configuration not stated)	90 % of control
COc1cc2c(cc1OC)C(Cc1ccc(N)cc1)N(C)CC2 (configuration not stated)	87 % of control
CSc1ccccc1N.[Cl][Cu][Cl]	115 % of control
CC(C)c1cccc(OC(=O)N(C)[Si](C)(C)C)c1	97 % of control
COC(=O)C1=CN=NC1=[N+]=[N-]	103 % of control

Values from PubChem BioAssay AID248
